# experiment summary: In vivo pharmacokinetic properties in mice
# Set-up: species or system mouse
# setup conditions: male ICR mice; intragastric 250 mg/kg vs intravenous 5 mg/kg
So basically: F at 40% or higher? That is criterion met. Lower than 40%? That is criterion not met.

molecule	label
CCN(c1cc(O[C@H]2C[C@H](N3C[C@@H](C)O[C@@H](C)C3)C2)cc(C(=O)NCc2c(OC)cc(C)[nH]c2=O)c1C)C1CC2CCC(C1)O2 (stereo partly drawn)	criterion not met
CCN(c1cc(O[C@H]2C[C@H](N3C[C@@H](C)O[C@@H](C)C3)C2)cc(C(=O)NCc2c(C)cc(C)[nH]c2=O)c1C)C1CCC(F)(F)CC1	criterion met
CCN(c1cc(O[C@H]2C[C@H](N3C[C@@H](C)O[C@@H](C)C3)C2)cc(C(=O)NCc2c(OC)cc(C)[nH]c2=O)c1C)C1CCC(F)(F)CC1	criterion not met

Query block: Is reported F greater than or equal to 40% here: CCN(c1cc(O[C@H]2C[C@H](N3CCCCC3)C2)cc(C(=O)NCc2c(C)cc(C)[nH]c2=O)c1C)C1CCOCC1
Result block: criterion met

Query block: Is reported F greater than or equal to 40% here: CCN(c1cc(O[C@H]2C[C@H](N3CCCCC3)C2)cc(C(=O)NCc2c(OC)cc(C)[nH]c2=O)c1C)C1CCC(F)(F)CC1
Result block: criterion met

Query block: Is reported F greater than or equal to 40% here: CCN(c1cc(OC2CN(C(=O)OC(C)(C)C)C2)cc(C(=O)NCc2c(C)cc(C)[nH]c2=O)c1C)C1CCOCC1 [EPZ194, reference compound]
Result block: criterion not met

###

# Tested on: WSU-DLCL2
# experiment summary: Methylated lysine of histone-H3 (H3K27Me3) detection by ELISA, WSU-DLCL2 cells
# Format: cell-based
# setup conditions: Homo sapiens, WSUDLCL2, 168 h; WSU-DLCL2, 7 days treatment, H3K27Me3 normalized to total histone-3; read-out: IC50 of cell methylation, WSU-DLCL2
observable: IC50

Query block: Give its IC50 value. Item: CCN(c1cc(O[C@H]2C[C@H](N3CCN(S(C)(=O)=O)CC3)C2)cc(C(=O)NCc2c(C)cc(C)[nH]c2=O)c1C)C1CCOCC1
Result block: < 50 nM

###

# experiment summary: In vivo pharmacokinetic properties in mice
# Set-up: species or system mouse
# setup conditions: mouse, plasma, oral; male ICR mice; single intravenous 5 mg/kg and intragastric 250 mg/kg study; read-out: Tmax
So basically: Tmax at 30 min or higher? That is Condition met. Lower than 30 min? That is Condition not met.

compound	label
CCN(c1cc(O[C@H]2C[C@H](N3C[C@@H](C)O[C@@H](C)C3)C2)cc(C(=O)NCc2c(C)cc(C)[nH]c2=O)c1C)C1CCC(F)(F)CC1 [Example 45]	Condition met
CCN(c1cc(O[C@H]2C[C@H](N3C[C@@H](C)O[C@@H](C)C3)C2)cc(C(=O)NCc2c(OC)cc(C)[nH]c2=O)c1C)C1CCC(F)(F)CC1 [Example 87]	Condition met
CCN(c1cc(O[C@H]2C[C@H](N3CCCCC3)C2)cc(C(=O)NCc2c(C)cc(C)[nH]c2=O)c1C)C1CCOCC1 [Example 92]	Condition met
CCN(c1cc(O[C@H]2C[C@H](N3CCCCC3)C2)cc(C(=O)NCc2c(C)cc(C)[nH]c2=O)c1C)C1CCC(F)(F)CC1 [Example 68]	Condition met
CCN(c1cc(O[C@H]2C[C@H](N3CCCCC3)C2)cc(C(=O)NCc2c(C)cc(C)[nH]c2=O)c1Cl)C1CCOCC1 [Example 66]	Condition not met

Continue with the compound presented below.
Query block: Is reported Tmax greater than or equal to 30 min here: CCN(c1cc(O[C@H]2C[C@H](N3CCOCC3)C2)cc(C(=O)NCc2c(C)cc(C)[nH]c2=O)c1C)C1CC2CCC(C1)O2 (stereo partly drawn) [Example 86]
Result block: Condition not met

###

# tested system: EZH2 (Y641F) (Homo sapiens (Human), UniProt Q15910, Y641F)
# Sequence (Q15910 whole entry Y641F): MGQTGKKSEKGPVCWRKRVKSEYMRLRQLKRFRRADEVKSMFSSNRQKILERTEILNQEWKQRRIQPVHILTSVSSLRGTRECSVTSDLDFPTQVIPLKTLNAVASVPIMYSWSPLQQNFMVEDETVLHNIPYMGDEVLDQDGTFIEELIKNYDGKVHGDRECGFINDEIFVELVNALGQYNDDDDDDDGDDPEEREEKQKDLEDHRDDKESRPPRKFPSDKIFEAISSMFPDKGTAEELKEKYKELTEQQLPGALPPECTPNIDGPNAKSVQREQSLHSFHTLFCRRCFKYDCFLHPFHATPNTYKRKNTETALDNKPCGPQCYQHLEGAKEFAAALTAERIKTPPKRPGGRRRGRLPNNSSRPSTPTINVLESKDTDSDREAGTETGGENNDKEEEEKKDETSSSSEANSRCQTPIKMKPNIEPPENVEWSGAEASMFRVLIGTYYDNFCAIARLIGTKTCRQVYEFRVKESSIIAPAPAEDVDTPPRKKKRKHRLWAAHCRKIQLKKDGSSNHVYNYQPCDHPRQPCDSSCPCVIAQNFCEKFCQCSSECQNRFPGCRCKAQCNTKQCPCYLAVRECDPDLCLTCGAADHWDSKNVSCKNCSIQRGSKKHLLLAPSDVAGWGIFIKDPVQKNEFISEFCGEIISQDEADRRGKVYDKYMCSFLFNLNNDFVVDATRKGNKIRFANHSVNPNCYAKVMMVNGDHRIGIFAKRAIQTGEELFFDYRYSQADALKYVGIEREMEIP
# Sequence (O75530 whole entry partner): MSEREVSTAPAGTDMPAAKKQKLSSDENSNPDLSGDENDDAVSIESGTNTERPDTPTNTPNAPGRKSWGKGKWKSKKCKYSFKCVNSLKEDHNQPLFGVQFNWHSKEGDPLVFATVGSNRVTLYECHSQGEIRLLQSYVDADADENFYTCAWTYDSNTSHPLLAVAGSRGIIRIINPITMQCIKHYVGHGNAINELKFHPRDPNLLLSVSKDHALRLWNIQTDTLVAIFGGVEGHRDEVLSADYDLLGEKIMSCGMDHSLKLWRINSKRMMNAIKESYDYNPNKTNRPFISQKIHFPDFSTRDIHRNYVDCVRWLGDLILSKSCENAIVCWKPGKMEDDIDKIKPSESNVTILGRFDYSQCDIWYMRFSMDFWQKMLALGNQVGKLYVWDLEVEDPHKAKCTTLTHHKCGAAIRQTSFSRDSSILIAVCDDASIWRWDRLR
# Sequence (Q15022 whole entry partner): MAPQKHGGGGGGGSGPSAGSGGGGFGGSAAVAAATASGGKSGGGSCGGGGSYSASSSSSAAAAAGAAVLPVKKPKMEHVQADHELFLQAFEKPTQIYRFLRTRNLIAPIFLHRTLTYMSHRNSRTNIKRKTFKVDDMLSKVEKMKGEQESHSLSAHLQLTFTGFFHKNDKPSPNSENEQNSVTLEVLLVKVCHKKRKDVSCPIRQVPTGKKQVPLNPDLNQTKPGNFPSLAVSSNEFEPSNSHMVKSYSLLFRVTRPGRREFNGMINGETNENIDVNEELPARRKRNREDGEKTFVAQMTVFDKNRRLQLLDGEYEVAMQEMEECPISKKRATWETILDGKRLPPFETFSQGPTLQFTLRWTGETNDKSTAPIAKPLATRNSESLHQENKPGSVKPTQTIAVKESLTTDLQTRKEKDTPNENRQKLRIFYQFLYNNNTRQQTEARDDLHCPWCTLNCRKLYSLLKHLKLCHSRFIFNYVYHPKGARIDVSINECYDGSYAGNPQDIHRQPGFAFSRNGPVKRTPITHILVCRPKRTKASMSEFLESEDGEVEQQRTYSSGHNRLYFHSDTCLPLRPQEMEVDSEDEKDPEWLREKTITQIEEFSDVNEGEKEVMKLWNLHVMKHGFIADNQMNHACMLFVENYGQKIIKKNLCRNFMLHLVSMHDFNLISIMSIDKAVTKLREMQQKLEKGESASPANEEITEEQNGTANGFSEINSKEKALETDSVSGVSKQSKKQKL
# experiment summary: Test on EZH2 (Y641F) inhibitory activity
Each record here notes measured IC50.
Write the answer as a number in nM, unit excluded.

compound	tested system	IC50 / nM
CCN(c1cc(O[C@H]2C[C@H](N3C[C@@H](C)O[C@@H](C)C3)C2)cc(C(=O)NCc2c(OC)cc(C)[nH]c2=O)c1C)C1CCC(F)(F)CC1	EZH2 (Y641F) (Homo sapiens (Human), UniProt Q15910, Y641F)	5.5

Query block: Give its IC50 value. Item: CCN(c1cc(O[C@H]2C[C@H](N3C[C@@H](C)O[C@@H](C)C3)C2)cc(C(=O)NCc2c(OC)cc(C)[nH]c2=O)c1C)C1CC2CCC(C1)O2 (stereo partly drawn)
Result block: 3.3

###

# experiment summary: In vivo pharmacokinetic properties in mice
# Parameters: species or system mouse
# setup conditions: mouse, plasma; male ICR mice; single intravenous 5 mg/kg and intragastric 250 mg/kg study
observable: half-life (h)
Write the answer as a number in h, unit excluded.

Examples with their reported half-life follow.
molecule	unit symbol	half-life
CCN(c1cc(O[C@H]2C[C@H](N3CCCCC3)C2)cc(C(=O)NCc2c(OC)cc(C)[nH]c2=O)c1C)C1CCOCC1 [Example 93]	h	1.3
CCN(c1cc(O[C@H]2C[C@H](N3CCCCC3)C2)cc(C(=O)NCc2c(C)cc(C)[nH]c2=O)c1C)C1CCC(F)(F)CC1 [Example 68]	h	10.4
CCN(c1cc(O[C@H]2C[C@H](N3CCC(C)CC3)C2)cc(C(=O)NCc2c(C)cc(C)[nH]c2=O)c1Cl)C1CCOCC1 [Example 59]	h	6.2
CCN(c1cc(O[C@H]2C[C@H](N3CCCCC3)C2)cc(C(=O)NCc2c(C)cc(C)[nH]c2=O)c1Cl)C1CCOCC1 [Example 66]	h	5.05
CCN(c1cc(O[C@H]2C[C@H](N3CCCCC3)C2)cc(C(=O)NCc2c(C)cc(C)[nH]c2=O)c1C)C1CCOCC1 [Example 92]	h	2.03
CCN(c1cc(O[C@H]2C[C@H](N3CCCCC3)C2)cc(C(=O)NCc2c(OC)cc(C)[nH]c2=O)c1C)C1CCC(F)(F)CC1 [Example 91]	h	7.72

Query block: Give its half-life value. Item: CCN(c1cc(O[C@H]2C[C@H](N3CCOCC3)C2)cc(C(=O)NCc2c(C)cc(C)[nH]c2=O)c1C)C1CCOCC1 [Example 4]
Result block: 3.13

Query block: Give its half-life value. Item: CCN(c1cc(O[C@H]2C[C@H](N3C[C@@H](C)O[C@@H](C)C3)C2)cc(C(=O)NCc2c(C)cc(C)[nH]c2=O)c1C)C1CC2CCC(C1)O2 (stereo partly drawn) [Example 47]
Result block: 3.1

Query block: Give its half-life value. Item: CCN(c1cc(O[C@H]2C[C@H](N3C[C@@H](C)O[C@@H](C)C3)C2)cc(C(=O)NCc2c(OC)cc(C)[nH]c2=O)c1C)C1CC2CCC(C1)O2 (stereo partly drawn) [Example 88]
Result block: 2.26

Query block: Give its half-life value. Item: CCN(c1cc(O[C@H]2C[C@H](N3CCOCC3)C2)cc(C(=O)NCc2c(C)cc(C)[nH]c2=O)c1C)C1CC2CCC(C1)O2 (stereo partly drawn) [Example 86]
Result block: 4.19

Query block: Give its half-life value. Item: CCN(c1cc(O[C@H]2C[C@H](N3C[C@@H](C)O[C@@H](C)C3)C2)cc(C(=O)NCc2c(OC)cc(C)[nH]c2=O)c1C)C1CCC(F)(F)CC1 [Example 87]
Result block: 5.77

Query block: Give its half-life value. Item: CCN(c1cc(O[C@H]2C[C@H](N3C[C@@H](C)O[C@@H](C)C3)C2)cc(C(=O)NCc2c(C)cc(C)[nH]c2=O)c1C)C1CCC(F)(F)CC1 [Example 45]
Result block: 7.44

###

# Test system: Pfeiffer cells
# experiment summary: Experiment on Pfeiffer cell proliferation (CellTiter-Glo)
# Format: cell-based, human
# setup conditions: Homo sapiens, 168 h, Day 7, read-out: IC50 Pfeiffer proliferation Day 7
observable: pIC50
# pIC50: negative log10 of molar concentration; output just the value

Examples with their reported pIC50 follow.
compound	pIC50
CCN(c1cc(O[C@H]2C[C@H](N3CCCCC3)C2)cc(C(=O)NCc2c(OC)cc(C)[nH]c2=O)c1C)C1CCC(F)(F)CC1 [Example 91]	8.22
CCN(c1cc(O[C@H]2C[C@H](N3CCCCC3)C2)cc(C(=O)NCc2c(C)cc(C)[nH]c2=O)c1C)C1CCC(F)(F)CC1 [Example 68]	7.89
CCN(c1cc(O[C@H]2C[C@H](N3C[C@@H](C)O[C@@H](C)C3)C2)cc(C(=O)NCc2c(C)cc(C)[nH]c2=O)c1C)C1CCC(F)(F)CC1 [Example 45]	7.16

Kindly consider the entry below.
Query block: Give its pIC50 value. Item: CCN(c1cc(O[C@H]2C[C@H](N3C[C@@H](C)O[C@@H](C)C3)C2)cc(C(=O)NCc2c(OC)cc(C)[nH]c2=O)c1C)C1CCC(F)(F)CC1 [Example 87]
Result block: 7.70
